In this section, each of the molecules is paired with its reported clearance.
test: Clearance in Sprague-Dawley rat at 10 mg/kg, iv; type: ADME, organism-based; design: dose 10 mg/kg, route intravenous; settings: in vivo
Express the result in mL/min/kg but write the number alone.

Previously resolved entries follow.
Returns the measured clearance for the input molecule. Input: O=C1O[C@@H](Cn2ccnn2)CN1c1ccc(N2CCN(Cc3ccc([N+](=O)[O-])o3)CC2)c(F)c1
16.2

Returns the measured clearance for the input molecule. Input: Nc1ccc(CN2CCN(c3ccc(N4C[C@H](Cn5ccnn5)OC4=O)cc3F)CC2)cc1
23.9

Returns the measured clearance for the input molecule. Input: O=C1O[C@@H](Cn2ccnn2)CN1c1ccc(N2CCN(Cc3ccoc3)CC2)c(F)c1
6.98

***
Returns the measured clearance for the input molecule. Input: O=C1O[C@@H](Cn2ccnn2)CN1c1ccc(N2CCN(Cc3cccc([N+](=O)[O-])c3)CC2)c(F)c1
6.98
